Values compiled from patent US20090062294A1.

# Target system: FAAH (Homo sapiens, UniProt O00519)
# Sequence (O00519 1-579): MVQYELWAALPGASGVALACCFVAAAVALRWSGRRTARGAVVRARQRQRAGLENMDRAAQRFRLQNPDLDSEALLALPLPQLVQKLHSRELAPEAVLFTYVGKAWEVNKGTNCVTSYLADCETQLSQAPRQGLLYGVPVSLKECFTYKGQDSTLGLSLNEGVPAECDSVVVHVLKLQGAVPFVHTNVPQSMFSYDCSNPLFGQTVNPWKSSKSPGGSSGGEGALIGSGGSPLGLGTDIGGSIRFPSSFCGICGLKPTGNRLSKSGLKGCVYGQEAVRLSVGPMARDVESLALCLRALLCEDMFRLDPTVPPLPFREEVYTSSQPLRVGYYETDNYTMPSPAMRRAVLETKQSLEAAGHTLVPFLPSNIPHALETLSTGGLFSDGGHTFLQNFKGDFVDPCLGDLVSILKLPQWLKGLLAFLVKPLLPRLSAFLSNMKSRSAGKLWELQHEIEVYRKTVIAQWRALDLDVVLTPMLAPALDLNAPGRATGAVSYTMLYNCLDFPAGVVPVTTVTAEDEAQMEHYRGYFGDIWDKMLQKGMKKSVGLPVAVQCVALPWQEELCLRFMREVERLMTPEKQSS
# Experimental protocol: Assay Method 1: FAAH assay, 3H-anandamide hydrolysis in homogenate of T84 cells or SK-N-MC cells transfected with human FAAH
# Test parameters: average of results, > = solubility limit or highest concentration tested
Parameter: IC50 (nM)

Solved entries:
Query string: Complete the entry with IC50 for O=C(Nc1noc2ccccc12)N1CCN(Cc2cccc(Oc3ccc(Cl)c(F)c3)c2)CC1 [Example 206]
Result string: 11

Query string: Complete the entry with IC50 for N#Cc1ccc(Oc2cccc(CN3CCN(C(=O)Nc4ccon4)CC3)c2)cc1 [Example 152]
Result string: 330

Query string: Complete the entry with IC50 for O=C(Nc1ccon1)N1CCN(Cc2cc3ccccc3o2)CC1 [Example 138]
Result string: 5000

Query string: Complete the entry with IC50 for O=C(Nc1noc2cc(F)ccc12)N1CCN(Cc2cccc(Oc3ccc(Cl)cc3)c2)CC1 [Example 245]
Result string: 19

Query string: Complete the entry with IC50 for O=C(Nc1ccon1)N1CCN(Cc2ccc(Br)c(F)c2)CC1 [Example 151]
Result string: 3000

[1] O=C(Nc1cnccn1)N1CCN(Cc2ccc3ccccc3n2)CC1 [Example 239]
[2] O=C(Nc1noc2ccccc12)N1CCN(Cc2cccc(C#Cc3ccccc3C(F)(F)F)c2)CC1 [Example 64]
[3] O=C(Nc1cnccn1)N1CCN(Cc2cccc(Oc3ccc(F)c(C(F)(F)F)c3)c2)CC1 [Example 241]
Query string: Reorder the items by IC50, least to greatest. # the answer lists labels in the order requested
Result string: 3, 2, 1
(3: 8 nM, 2: 105 nM, 1: 700 nM)

====

# Target system: FAAH (Homo sapiens)
# Sequence (O00519 1-579): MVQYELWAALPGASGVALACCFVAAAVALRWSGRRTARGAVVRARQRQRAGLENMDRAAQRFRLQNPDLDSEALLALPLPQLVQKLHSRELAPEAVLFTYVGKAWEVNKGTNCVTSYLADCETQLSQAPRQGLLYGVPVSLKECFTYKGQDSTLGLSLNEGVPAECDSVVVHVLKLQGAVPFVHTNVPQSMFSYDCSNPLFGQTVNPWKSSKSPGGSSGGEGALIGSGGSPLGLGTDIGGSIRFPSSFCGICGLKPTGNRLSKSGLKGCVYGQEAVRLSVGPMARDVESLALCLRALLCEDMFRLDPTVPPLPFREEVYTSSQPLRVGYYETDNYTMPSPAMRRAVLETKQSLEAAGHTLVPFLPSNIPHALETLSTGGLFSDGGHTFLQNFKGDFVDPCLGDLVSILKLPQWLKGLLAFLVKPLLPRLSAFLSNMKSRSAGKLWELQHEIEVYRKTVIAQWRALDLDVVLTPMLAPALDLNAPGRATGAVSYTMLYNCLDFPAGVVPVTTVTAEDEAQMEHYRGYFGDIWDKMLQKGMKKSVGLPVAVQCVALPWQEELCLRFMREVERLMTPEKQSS
# Experimental protocol: Assay Method 1: FAAH assay, 3H-anandamide hydrolysis in homogenate of T84 cells or SK-N-MC cells transfected with human FAAH
# Test parameters: average of results, > = solubility limit or highest concentration tested
pIC50: −log10 of the molar value. Where a name gives a salt, the structure may show the parent alone.
Parameter: pIC50

Query string: Complete the entry with pIC50 for O=C(Nc1ccon1)N1CCN(Cc2ccc(Cl)c(Cl)c2)CC1 [Example 160]
Result string: 5.52

Query string: Complete the entry with pIC50 for Cn1cc(Br)c(NC(=O)N2CCN(Cc3cccc(Oc4ccc(Cl)cc4)c3)CC2)n1 [Example 192, trifluoroacetic acid salt]
Result string: 5.40

Query string: Complete the entry with pIC50 for O=C(Nc1cnccn1)N1CCN(Cc2cccc(Oc3cccc(Br)c3)c2)CC1 [Example 240]
Result string: 7.70

Query string: Complete the entry with pIC50 for O=C(Nc1ccon1)N1CCN(Cc2cccc(Oc3ccc(S(=O)(=O)C(F)(F)F)cc3)c2)CC1 [Example 158]
Result string: 8.00

[1] O=C(Nc1ccon1)N1CCN(Cc2cccc(Oc3ccc(Br)cc3)c2)CC1 [Example 145]
[2] O=C(Nc1ccc(Cl)nn1)N1CCN(Cc2cccc(Oc3ccc(Cl)cc3)c2)CC1 [Example 42, trifluoroacetic acid salt]
Query string: For 1 and 2 , which recorded pIC50 is lower? I would appreciate it if you answered with the label of your choice.
Result string: 2

[1] O=C(Nc1ccc(Cl)nn1)N1CCN(Cc2cccc(Oc3cccc(C(F)(F)F)c3)c2)CC1 [Example 44, trifluoroacetic acid salt]
[2] O=C(Nc1nn[nH]n1)N1CCN(Cc2cccc(Oc3cccc(C(F)(F)F)c3)c2)CC1 [Example 186]
Query string: Which is greater in pIC50, the first item 1 or the second item 2 ? I would appreciate it if you answered with the label of your choice.
Result string: 2

[I] O=C(Nc1cccnn1)N1CCN(Cc2ccc(Cl)c(Cl)c2)CC1 [Example 199]
[II] O=C(Nc1nnn[nH]1)N1CCN(Cc2ccc3ccccc3c2)CC1 [Example 176]
Query string: For I and II , which recorded pIC50 is lower? I would appreciate it if you answered with the label of your choice.
Result string: II

[P] O=C(Nc1noc2ccccc12)N1CCN(Cc2cc3ccccc3o2)CC1 [Example 126]
[Q] O=C(Nc1noc2ccccc12)N1CCN(Cc2cccc(Oc3ncccn3)c2)CC1 [Example 95]
Query string: Which is greater in pIC50, the first item P or the second item Q ? I would appreciate it if you answered with the label of your choice.
Result string: P
(P: 7.22, Q: 5.55)

[P] O=C(Nc1noc2ccccc12)N1CCN(Cc2cccc(Oc3ccc(Cl)c(Cl)c3)c2)CC1 [Example 50, trifluoroacetic acid salt]
[Q] O=C(Nc1ccon1)N1CCN(Cc2cccc(Oc3ccc(C(F)(F)F)cc3)c2)CC1 [Example 161]
Query string: Which is greater in pIC50, the first item P or the second item Q ? I would appreciate it if you answered with the label of your choice.
Result string: Q

[1] O=C(Nc1noc2ccccc12)N1CCN(Cc2cccc(C#Cc3ccsc3)c2)CC1 [Example 77]
[2] O=C(Nc1nc(-c2ccccc2)ns1)N1CCN(Cc2ccc3c(c2)OC(F)(F)O3)CC1 [Example 2, trifluoroacetic acid salt]
Query string: Which is greater in pIC50, the first item 1 or the second item 2 ? I would appreciate it if you answered with the label of your choice.
Result string: 1
(1: 7.92, 2: 6.67)

====

# Target system: FAAH (Homo sapiens)
# Experimental protocol: Assay Method 1: FAAH assay, 3H-anandamide hydrolysis in homogenate of T84 cells or SK-N-MC cells transfected with human FAAH
# Test parameters: average of results, > = solubility limit or highest concentration tested
pIC50: −log10 of the molar value. Where a name gives a salt, the structure may show the parent alone.
Parameter: pIC50

Query string: Recall the reported pIC50 of O=C(Nc1cccc2nsnc12)N1CCN(Cc2ccc3c(c2)OC(F)(F)O3)CC1 [Example 4, trifluoroacetic acid salt] when tested on FAAH (Homo sapiens).
Result string: 7.23

Query string: Recall the reported pIC50 of "O=C(Nc1ccon1)N1CCN(Cc2ccc3ccccc3c2)CC1" when tested on FAAH (Homo sapiens).
Result string: 6.46

Query string: Recall the reported pIC50 of O=C(Nc1cc[nH]n1)N1CCN(Cc2ccc(F)c(Oc3ccccc3)c2)CC1 [Example 56, trifluoroacetic acid salt] when tested on FAAH (Homo sapiens).
Result string: 5.82

Query string: Recall the reported pIC50 of "Cc1cc(NC(=O)N2CCN(Cc3cccc(Oc4ccc(Cl)cc4)c3)CC2)n[nH]1" when tested on FAAH (Homo sapiens).
Result string: 6.66

Query string: Recall the reported pIC50 of "N#Cc1ccccc1C#Cc1cccc(CN2CCN(C(=O)Nc3noc4ccccc34)CC2)c1" when tested on FAAH (Homo sapiens).
Result string: 7.74

Query string: Recall the reported pIC50 of O=C(Nc1noc2ccccc12)N1CCN(Cc2cccc(Oc3ccc(Cl)c(C(F)(F)F)c3)c2)CC1 [Example 205, trifluoroacetic acid salt] when tested on FAAH (Homo sapiens).
Result string: 6.97

Query string: Recall the reported pIC50 of "O=C(Nc1noc2ccccc12)N1CCN(Cc2cccc(C#CC3CCCCC3)c2)CC1" when tested on FAAH (Homo sapiens).
Result string: 7.34

[A] O=C(Nc1nnn[nH]1)N1CCN(Cc2cccc(Oc3ccc(SC(F)(F)F)cc3)c2)CC1
[B] O=C(Nc1noc2ccccc12)N1CCN(Cc2ccc(OC(F)(F)F)c(Cl)c2)CC1
Query string: Which is greater in pIC50, the first item A or the second item B ? I would appreciate it if you answered with the label of your choice.
Result string: A
(A: 7.30, B: 7.10)
